- subject of test: T1, TNFR1 (Homo sapiens, UniProt P19438)
- T1 chain: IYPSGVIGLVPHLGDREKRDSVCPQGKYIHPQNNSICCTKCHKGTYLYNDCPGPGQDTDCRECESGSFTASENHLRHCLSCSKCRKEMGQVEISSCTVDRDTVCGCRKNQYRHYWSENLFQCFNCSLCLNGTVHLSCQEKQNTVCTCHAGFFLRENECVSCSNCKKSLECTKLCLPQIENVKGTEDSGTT
- assay notes: yeast display SC50
assay metric: apparent Kd (screen) (pM)

Reference set, count: 5
>  <binder>
A11E (designed binder) MTLQELLREEELRRAEAEAFRYALELLAEKFPEQKEYLLDLAEEIESQIRSLSGVDVEDVRKFLDKEWAWVKELLAEHPAELAEVEAARAARLAELRAEVEAKVAA

>  <units>
pM

>  <apparent Kd (screen)>
446

$$$$
>  <binder>
P32G (designed binder) MTLQELLREEALRRAEAEAFRYALELLAEKFGEQKEYLLDLAEEIESQIRSLSGVDVEDVRKFLDKEWAWVKELLAEHPAELAEVEAARAARLAELRAEVEAKVAA

>  <units>
pM

>  <apparent Kd (screen)>
593

$$$$
>  <binder>
L74F (designed binder) MTLQELLREEALRRAEAEAFRYALELLAEKFPEQKEYLLDLAEEIESQIRSLSGVDVEDVRKFLDKEWAWVKEFLAEHPAELAEVEAARAARLAELRAEVEAKVAA

>  <units>
pM

>  <apparent Kd (screen)>
790

$$$$
>  <binder>
E86M (designed binder) MTLQELLREEALRRAEAEAFRYALELLAEKFPEQKEYLLDLAEEIESQIRSLSGVDVEDVRKFLDKEWAWVKELLAEHPAELAEVMAARAARLAELRAEVEAKVAA

>  <units>
pM

>  <apparent Kd (screen)>
790

$$$$
>  <binder>
L75C (designed binder) MTLQELLREEALRRAEAEAFRYALELLAEKFPEQKEYLLDLAEEIESQIRSLSGVDVEDVRKFLDKEWAWVKELCAEHPAELAEVEAARAARLAELRAEVEAKVAA

>  <units>
pM

>  <apparent Kd (screen)>
653

$$$$

I. L12M (designed binder) MTLQELLREEAMRRAEAEAFRYALELLAEKFPEQKEYLLDLAEEIESQIRSLSGVDVEDVRKFLDKEWAWVKELLAEHPAELAEVEAARAARLAELRAEVEAKVAA
II. V85P (designed binder) MTLQELLREEALRRAEAEAFRYALELLAEKFPEQKEYLLDLAEEIESQIRSLSGVDVEDVRKFLDKEWAWVKELLAEHPAELAEPEAARAARLAELRAEVEAKVAA
III. L93E (designed binder) MTLQELLREEALRRAEAEAFRYALELLAEKFPEQKEYLLDLAEEIESQIRSLSGVDVEDVRKFLDKEWAWVKELLAEHPAELAEVEAARAAREAELRAEVEAKVAA
Qu. // smallest apparent Kd (screen) at index 0, largest at the end Rank the items, then write their labels in that order.
Ans. I, III, II

Entry source: paper PMC12416549
